- target or system: Neuropilin-1 (Homo sapiens)
- test name: Inhibition of human biotinylated VEGF-A165 binding to recombinant human NRP1 receptor at 50 uM after 2 hrs by chemiluminescence analysis relative to control
Square brackets hold non-standard residues; d marks the D form. Peptide text beside a SMILES is read from it. Oic = O=C(O)[C@@H]1C[C@@H]2CCCC[C@@H]2N1; Hyp = O=C(O)[C@@H]1C[C@@H](O)CN1; Pip(4-aza) = O=C(O)[C@@H]1CNCCN1; hArg = N=C(N)NCCCC[C@H](N)C(=O)O; Tic = O=C(O)[C@@H]1Cc2ccccc2CN1; ΔPro = O=C(O)[C@@H]1C=CCN1; Aze = O=C(O)[C@@H]1CCN1; Dab = NCC[C@H](N)C(=O)O
Could you label it Satisfied if measured inhibition is 70% or higher, and Not satisfied otherwise?

Look over these answered cases.
| compound | target or system | class assignment |
| --- | --- | --- |
| N=C(N)NCCCC[C@H](N)C(=O)NCCCC[C@H](N)C(=O)N1CC=C[C@H]1C(=O)N1CC=C[C@H]1C(=O)N[C@@H](CCCNC(=N)N)C(=O)O (H-K(hArg)[ΔPro][ΔPro]R-OH) | Neuropilin-1 (Homo sapiens) | Satisfied |
| N=C(N)NCCCC[C@H](N)C(=O)NCCCC[C@H](N)C(=O)N[C@@H](CCN)C(=O)N1CC=C[C@H]1C(=O)N[C@@H](CCCNC(=N)N)C(=O)O (H-K(hArg)[Dab][ΔPro]R-OH) | Neuropilin-1 (Homo sapiens) | Satisfied |
| N=C(N)NCCCC[C@H](N)C(=O)NCCCC[C@H](N)C(=O)N1CC[C@H]1C(=O)N1CC[C@H]1C(=O)N[C@@H](CCCNC(=N)N)C(=O)O (H-K(hArg)[Aze][Aze]R-OH) | Neuropilin-1 (Homo sapiens) | Not satisfied |
| N=C(N)NCCCC[C@H](N)C(=O)NCCCC[C@H](N)C(=O)N[C@@H](CCN)C(=O)N1[C@H](C(=O)N[C@@H](CCCNC(=N)N)C(=O)O)C[C@@H]2CCCC[C@@H]21 (H-K(hArg)[Dab][Oic]R-OH) | Neuropilin-1 (Homo sapiens) | Satisfied |
| N=C(N)NCCCC[C@H](N)C(=O)NCCCC[C@H](N)C(=O)N[C@@H](CCN)C(=O)N1CCC[C@H]1C(=O)N[C@@H](CCCNC(=N)N)C(=O)O (H-K(hArg)[Dab]PR-OH) | Neuropilin-1 (Homo sapiens) | Satisfied |
| N=C(N)NCCCC[C@H](N)C(=O)NCCCC[C@H](N)C(=O)N1CCNC[C@H]1C(=O)N1CCNC[C@H]1C(=O)N[C@@H](CCCNC(=N)N)C(=O)O (H-K(hArg)[Pip(4-aza)][Pip(4-aza)]R-OH) | Neuropilin-1 (Homo sapiens) | Not satisfied |
| N=C(N)NCCCC[C@H](N)C(=O)NCCCC[C@H](N)C(=O)N[C@@H](CCN)C(=O)N1CC[C@H]1C(=O)N[C@@H](CCCNC(=N)N)C(=O)O (H-K(hArg)[Dab][Aze]R-OH) | Neuropilin-1 (Homo sapiens) | Satisfied |
| N=C(N)NCCCC[C@H](N)C(=O)NCCCC[C@H](N)C(=O)N[C@@H](CCN)C(=O)N1CCNC[C@H]1C(=O)N[C@@H](CCCNC(=N)N)C(=O)O (H-K(hArg)[Dab][Pip(4-aza)]R-OH) | Neuropilin-1 (Homo sapiens) | Not satisfied |
| N=C(N)NCCCC[C@H](N)C(=O)NCCCC[C@H](N)C(=O)N1[C@H](C(=O)N2[C@H](C(=O)N[C@@H](CCCNC(=N)N)C(=O)O)C[C@@H]3CCCC[C@@H]32)C[C@@H]2CCCC[C@@H]21 (H-K(hArg)[Oic][Oic]R-OH) | Neuropilin-1 (Homo sapiens) | Satisfied |
| N=C(N)NCCCC[C@H](N)C(=O)NCCCC[C@H](N)C(=O)N1C[C@H](O)C[C@H]1C(=O)N1C[C@H](O)C[C@H]1C(=O)N[C@@H](CCCNC(=N)N)C(=O)O (H-K(hArg)[Hyp][Hyp]R-OH) | Neuropilin-1 (Homo sapiens) | Not satisfied |

// inclusive: inhibition at least 70%? input: N=C(N)NCCCC[C@H](N)C(=O)NCCCC[C@H](N)C(=O)N1Cc2ccccc2C[C@H]1C(=O)N1Cc2ccccc2C[C@H]1C(=O)N[C@@H](CCCNC(=N)N)C(=O)O (H-K(hArg)[Tic][Tic]R-OH) Not satisfied

Is inhibition for N=C(N)NCCCC[C@H](N)C(=O)NCCCC[C@H](N)C(=O)N[C@@H](CCN)C(=O)N1Cc2ccccc2C[C@H]1C(=O)N[C@@H](CCCNC(=N)N)C(=O)O (H-K(hArg)[Dab][Tic]R-OH) at or above 70%? Not satisfied

Reported inhibition at or above 70%? N=C(N)NCCCC[C@H](N)C(=O)NCCCC[C@H](N)C(=O)N[C@@H](CCN)C(=O)N1C[C@H](O)C[C@H]1C(=O)N[C@@H](CCCNC(=N)N)C(=O)O (H-K(hArg)[Dab][Hyp]R-OH) Satisfied

====

- target or system: Neuropilin-1 (Homo sapiens, UniProt O14786)
- Sequence (O14786 whole entry): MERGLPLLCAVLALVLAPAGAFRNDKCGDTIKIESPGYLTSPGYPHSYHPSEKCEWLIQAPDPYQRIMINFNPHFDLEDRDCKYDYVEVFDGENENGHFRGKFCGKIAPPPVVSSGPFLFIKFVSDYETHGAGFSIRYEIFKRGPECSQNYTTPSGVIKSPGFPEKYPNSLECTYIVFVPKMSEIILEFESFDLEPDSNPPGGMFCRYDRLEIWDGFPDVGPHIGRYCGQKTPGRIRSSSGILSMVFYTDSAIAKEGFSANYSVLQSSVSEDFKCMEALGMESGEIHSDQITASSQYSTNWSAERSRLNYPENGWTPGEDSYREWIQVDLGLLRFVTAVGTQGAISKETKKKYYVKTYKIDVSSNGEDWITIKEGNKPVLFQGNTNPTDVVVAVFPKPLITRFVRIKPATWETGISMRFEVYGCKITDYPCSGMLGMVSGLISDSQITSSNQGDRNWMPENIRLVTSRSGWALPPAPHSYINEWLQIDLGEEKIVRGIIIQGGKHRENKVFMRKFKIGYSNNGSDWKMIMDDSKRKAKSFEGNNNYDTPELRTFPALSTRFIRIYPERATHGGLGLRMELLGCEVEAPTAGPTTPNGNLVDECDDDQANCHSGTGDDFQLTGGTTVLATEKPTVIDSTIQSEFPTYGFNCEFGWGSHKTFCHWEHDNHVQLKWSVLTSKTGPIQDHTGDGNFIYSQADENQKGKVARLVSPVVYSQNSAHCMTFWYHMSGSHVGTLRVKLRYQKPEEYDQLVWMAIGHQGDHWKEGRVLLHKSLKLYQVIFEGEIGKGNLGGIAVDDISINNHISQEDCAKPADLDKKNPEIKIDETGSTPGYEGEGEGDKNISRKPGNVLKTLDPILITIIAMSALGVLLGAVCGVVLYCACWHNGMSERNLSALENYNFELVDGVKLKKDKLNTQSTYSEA
- test name: Inhibition of human biotinylated VEGF-A165 binding to recombinant human NRP1 receptor after 2 hrs by chemiluminescence analysis
- assay conditions: read-out: IC50
Square brackets hold non-standard residues; d marks the D form. Peptide text beside a SMILES is read from it. Hyp = O=C(O)[C@@H]1C[C@@H](O)CN1; Pip(4-aza) = O=C(O)[C@@H]1CNCCN1; hArg = N=C(N)NCCCC[C@H](N)C(=O)O; Aze = O=C(O)[C@@H]1CCN1; Dab = NCC[C@H](N)C(=O)O
readout label: pIC50
Answer as the number alone; pIC50 is minus log10 of concentration in mol/L.

| compound | quantitative result |
| --- | --- |
| N=C(N)NCCCC[C@H](N)C(=O)NCCCC[C@H](N)C(=O)N1CCC[C@H]1C(=O)N1CCC[C@H]1C(=O)N[C@@H](CCCNC(=N)N)C(=O)O (H-K(hArg)PPR-OH) | 4.68 |
| N=C(N)NCCCC[C@H](N)C(=O)NCCCC[C@H](N)C(=O)N[C@@H](CCN)C(=O)N1C[C@H](O)C[C@H]1C(=O)N[C@@H](CCCNC(=N)N)C(=O)O (H-K(hArg)[Dab][Hyp]R-OH) | 5.04 |

// pIC50 value for N=C(N)NCCCC[C@H](N)C(=O)NCCCC[C@H](N)C(=O)N1CCNC[C@H]1C(=O)N1CCNC[C@H]1C(=O)N[C@@H](CCCNC(=N)N)C(=O)O (H-K(hArg)[Pip(4-aza)][Pip(4-aza)]R-OH) : 4.80

Kindly note the recorded pIC50 for N=C(N)NCCCC[C@H](N)C(=O)NCCCC[C@H](N)C(=O)N[C@@H](CCN)C(=O)N1CC[C@H]1C(=O)N[C@@H](CCCNC(=N)N)C(=O)O (H-K(hArg)[Dab][Aze]R-OH) , which is 4.93

====

- target or system: Neuropilin-1 (Homo sapiens, UniProt O14786)
- test name: Inhibition of human biotinylated VEGF-A165 binding to recombinant human NRP1 receptor at 100 uM after 2 hrs by chemiluminescence analysis relative to control
Square brackets hold non-standard residues; d marks the D form. Peptide text beside a SMILES is read from it. Oic = O=C(O)[C@@H]1C[C@@H]2CCCC[C@@H]2N1; Hyp = O=C(O)[C@@H]1C[C@@H](O)CN1; hArg = N=C(N)NCCCC[C@H](N)C(=O)O; Tic = O=C(O)[C@@H]1Cc2ccccc2CN1; ΔPro = O=C(O)[C@@H]1C=CCN1; Aze = O=C(O)[C@@H]1CCN1; Dab = NCC[C@H](N)C(=O)O
Outcome label depends on inhibition relative to 70%: at/above gives Y, below gives N.

Illustrative cases are given below, each with its answer.
| compound | class assignment |
| --- | --- |
| N=C(N)NCCCC[C@H](N)C(=O)NCCCC[C@H](N)C(=O)N1CC=C[C@H]1C(=O)N1CC=C[C@H]1C(=O)N[C@@H](CCCNC(=N)N)C(=O)O (H-K(hArg)[ΔPro][ΔPro]R-OH) | Y |
| N=C(N)NCCCC[C@H](N)C(=O)NCCCC[C@H](N)C(=O)N[C@@H](CCN)C(=O)N1C[C@H](O)C[C@H]1C(=O)N[C@@H](CCCNC(=N)N)C(=O)O (H-K(hArg)[Dab][Hyp]R-OH) | Y |
| N=C(N)NCCCC[C@H](N)C(=O)NCCCC[C@H](N)C(=O)N1[C@H](C(=O)N2[C@H](C(=O)N[C@@H](CCCNC(=N)N)C(=O)O)C[C@@H]3CCCC[C@@H]32)C[C@@H]2CCCC[C@@H]21 (H-K(hArg)[Oic][Oic]R-OH) | Y |
| N=C(N)NCCCC[C@H](N)C(=O)NCCCC[C@H](N)C(=O)N1CC[C@H]1C(=O)N1CC[C@H]1C(=O)N[C@@H](CCCNC(=N)N)C(=O)O (H-K(hArg)[Aze][Aze]R-OH) | N |

For the next question, use this compound.
Confirm if inhibition reported for the compound N=C(N)NCCCC[C@H](N)C(=O)NCCCC[C@H](N)C(=O)N1Cc2ccccc2C[C@H]1C(=O)N1Cc2ccccc2C[C@H]1C(=O)N[C@@H](CCCNC(=N)N)C(=O)O (H-K(hArg)[Tic][Tic]R-OH) is 70% or above. N
